Target: T1, Soluble heterodimeric CD3 protein (hCD3-epsilon/hCD3-delta) with either a human Fc tag (hFcΔAdp/hFc) or a … (human, UniProt P07766 23-126; P04234 22-105)
T1 construct: also called hCD3ε/δ; not shown: Fc tag: human (hFcΔAdp/hFc)
T1 sequence (P07766 23-126 limits assumed, stated change not applied, chain 1 of 2): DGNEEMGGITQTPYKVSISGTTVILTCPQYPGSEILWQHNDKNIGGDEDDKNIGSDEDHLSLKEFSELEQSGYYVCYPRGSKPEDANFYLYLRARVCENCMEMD
T1 sequence (P04234 22-105 limits assumed, stated change not applied, chain 2 of 2): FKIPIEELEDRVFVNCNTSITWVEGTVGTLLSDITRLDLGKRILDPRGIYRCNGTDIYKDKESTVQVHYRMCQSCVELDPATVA
Assay: SPR Biacore 25C antibody-capture
Experimental: Measurements were conducted on a T200 Biacore™ instrument. Soluble heterodimeric CD3 protein (hCD3-epsilon/hCD3-delta; SEQ ID NOs:1652/1653) with either a human Fc tag (hFcΔAdp/hFc; SEQ ID NOs:1683/1684) or a mouse Fc tag (mFcΔAdp/mFc; SEQ ID NOs:1685/1686) was injected over the antibody captured surface and the binding response was recorded. Heterodimeric CD3 protein was purified using the method described in Davis et al. (US2010/0331527). […]
MEASURED_QUANTITY: T½ (min)
Number only, in min; omit the unit.

BINDER	UOM	T½
H1H5801B (antibody, human IgG1, V domains shown, H1H: human IgG1 Fc; divalent) VH: QVQLVQSGGGVVQPGGSLRLSCAASGFTFDDYAMHWVRQAPGKGLEWVSLISGDGGSTYYADSVKGRFTISRDNSKNSLYLQMNSLRTEDTALYYCAKDDSSSSWYYYYYGMDVWGRGTTVTVSS VL: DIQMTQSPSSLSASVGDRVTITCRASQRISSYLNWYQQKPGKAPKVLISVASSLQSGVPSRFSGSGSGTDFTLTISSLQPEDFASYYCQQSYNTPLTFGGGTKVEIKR	min	7

Inquiry: Fill in T½ for record H1H5763P (antibody, human IgG1, V domains shown, H1H: human IgG1 Fc; divalent) VH: QVQLVESGGGVVQPGRSLRLSCAASGLTFSSYGMHWVRQAPGKGLEWVAVISYDGSNKYYTDSVKGRFTISRDNSKNTLYLQMNSLRAEDTAVYYCAKGAMVRGVPYNYYYGMDVWGQGTTVTVSS VL: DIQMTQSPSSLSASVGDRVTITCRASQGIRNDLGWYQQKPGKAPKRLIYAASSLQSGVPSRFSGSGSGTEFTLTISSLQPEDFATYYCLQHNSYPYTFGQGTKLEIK
Reply text: 0

Inquiry: Fill in T½ for record H1H5790B (antibody, human IgG1, V domains shown, H1H: human IgG1 Fc; divalent) VH: EVQLVESGGGVVQPGRSLRLSCAASGFTFSYYGMHWVRQAPGKGLEWVAVISFDGKNKYYADSVMGRFTISRDNSKNTLYLQMNSLRAEDSAVFFCARSYDILTGYGAGYSYHYGMDVWGQGTTVTVSS VL: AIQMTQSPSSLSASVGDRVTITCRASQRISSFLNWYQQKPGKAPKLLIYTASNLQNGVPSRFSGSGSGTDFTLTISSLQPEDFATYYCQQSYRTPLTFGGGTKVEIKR
Reply text: 22

Inquiry: Fill in T½ for record H1H5799P (antibody, human IgG1, V domains shown, H1H: human IgG1 Fc; divalent) VH: QVQLVQSGAEVKKPGASVKVSCKASGYTFIGYYMHWVRQAPGQGLEWMGWINPKSGGTNYAQKFQGRVTMTGDTSISTAYMELSRLRSDDTAVFYCARMGDGAMFDYWGQGTLVTVSS VL: DIQMTQSPSSLSASVGDRVTITCRASQRISSYLNWYQQKAGKAPKVLIYTASSLQSGVPSRFSGSGSGTDFTLTISSLQPEDFATYYCQQSYSTPLTFGGGTKVEIK
Reply text: 1

Inquiry: Fill in T½ for record H1H5786B (antibody, human IgG1, V domains shown, H1H: human IgG1 Fc; divalent) VH: QVQLVESGAEVKKPGASVKVSCKTSGYTFTGYYMHWIRQAPGQGLEWMGWINPKSGGTNYAQKFQGRVTMTRDTSISTAYMELSRLRSDDMAVYYCARMGDGAVFDFWGQGTLVTVSS VL: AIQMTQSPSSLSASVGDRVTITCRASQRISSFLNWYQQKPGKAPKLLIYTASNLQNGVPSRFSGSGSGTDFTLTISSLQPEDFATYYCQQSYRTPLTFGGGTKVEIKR
Reply text: 11
